Target: hCB2R (Homo sapiens, UniProt P34972)
Sequence (P34972 whole entry): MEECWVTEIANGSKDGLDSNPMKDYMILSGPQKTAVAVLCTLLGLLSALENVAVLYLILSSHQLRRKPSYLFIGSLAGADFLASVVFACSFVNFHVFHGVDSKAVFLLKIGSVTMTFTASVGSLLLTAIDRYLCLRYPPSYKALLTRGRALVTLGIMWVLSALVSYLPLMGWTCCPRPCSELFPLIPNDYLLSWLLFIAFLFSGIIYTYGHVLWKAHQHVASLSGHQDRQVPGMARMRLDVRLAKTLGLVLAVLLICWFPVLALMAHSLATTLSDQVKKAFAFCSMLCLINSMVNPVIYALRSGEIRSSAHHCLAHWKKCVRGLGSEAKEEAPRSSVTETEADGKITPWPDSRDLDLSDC
Experiment: TR-FRET kinetic binding assay at CB2R
Design: expressed in transfected cells; host or cells: HEK293-TR cells, tetracycline-induced; membrane preparations
Details: 37 °C, hCB2R-HEK293 membranes, mean N = 3
# koff per record follows

[
  {
    "Compound": "C#CCCC(=O)NCC1=CC(c2c(OC)cc(C(C)(C)C(CCCCCN=[N+]=[N-])c3ccccc3)cc2OC)C2CC1C2(C)C [(S)-3]",
    "koff": "4.96 10^–2 min^–1"
  },
  {
    "Compound": "C#CCCC(=O)NCC1=CC(c2c(OC)cc(C(C)(C)C(CCCCCN=[N+]=[N-])c3ccccc3)cc2OC)C2CC1C2(C)C [(R)-3]",
    "koff": "2.29 10^–2 min^–1"
  },
  {
    "Compound": "COc1cc(C(C)(C)C(CCCCCN=[N+]=[N-])c2ccccc2)cc(OC)c1C1C=C(CN)C2CC1C2(C)C [(S)-1]",
    "koff": "115 10^–2 min^–1"
  },
  {
    "Compound": "COc1cc(C(C)(C)C(CCCCCN=[N+]=[N-])c2ccccc2)cc(OC)c1C1C=C(CN)C2CC1C2(C)C [(R)-1]",
    "koff": "13.9 10^–2 min^–1"
  }
]
